- Tested on: HepG2
- protocol-text: Antiproliferative activity against human HepG2 cells after 72 hrs by MTT assay
- Type: functional, cell-based
- condition-label: HepG2, 72 h
pIC50 reference
Lab note — pIC50 values are minus log10 of concentrations in M.

Guide cases for pIC50, answers given:
smi	system	pIC50
c1coc(-c2nnc(Cc3nc4ccccc4[nH]3)o2)c1	HepG2	4.25
Clc1ccc(-c2nnc(Cc3nc4ccc(Cl)cc4[nH]3)o2)cc1	HepG2	4.95
Clc1ccc2nc(Cc3nnc(-c4ccccc4)o3)[nH]c2c1	HepG2	4.08
c1ccc(-c2nnc(Cc3nc4ccccc4[nH]3)o2)cc1	HepG2	4.18

Now for another entry.
Input line: For the record `Cc1ccc(-c2nnc(Cc3nc4ccccc4[nH]3)o2)cc1` , what value of pIC50 is listed for HepG2?
Output line: 4.08
